system: IL-2 secretion by human effector memory T cells (TEM); assay: Effector memory T cells IL-2 release assay; assay type: cell-based; conditions: T-cell; human CD4+ effector memory T cells, CD3/CD28 bead stimulation, 24 h; read-out: CD4TC IL2 IC50
pIC50: −log10 of the molar value.
property-label: pIC50

C[C@@H]1CCN(c2ccc([C@H](N(C)C(=O)[C@H]3CC[S@](=N)(=O)CC3)C(F)(F)F)cc2)c2cnc3cc(Cl)nn3c21 (relative stereo)	7.17

a. CN(C(=O)C1CCS(=O)(=O)CC1)[C@@H](c1ccc(N2CC(C)(C)c3c2cnc2cc(Cl)nn32)cc1)C(F)(F)F
b. Cc1nn(C)cc1C(=O)N(C)[C@@H](c1ccc(N2CCCc3c2cnc2cc(Cl)nn32)cc1)C(F)(F)F
Compare reported pIC50 values for a and b . Which is lower? I would appreciate it if you answered with the label of your choice.
b
(b: 6.88, a: 7.23)

###

test system: IL-2 secretion by human effector memory T cells (TEM); assay: Effector memory T cells IL-2 release assay; assay type: cell-based; conditions: T-cell; human CD4+ effector memory T cells, CD3/CD28 bead stimulation, 24 h; read-out: CD4TC IL2 IC50
pIC50: −log10 of the molar value.
property-label: pIC50

Reference set (8 entries):
C[C@H]1CCN(c2ccc([C@H](N(C)C(=O)[C@H]3CC[S@@](=N)(=O)CC3)C(F)(F)F)cc2)c2cnc3cc(Cl)nn3c21 (relative stereo)	7.29
CN(C(=O)[C@H]1C[C@](O)(C(F)(F)F)C1)[C@@H](c1ccc(N2CCCc3c2cnc2cc(Cl)nn32)cc1)C(F)(F)F	6.65
CN1CC[C@H](C(=O)N(C)[C@@H](c2ccc(N3CCCc4c3cnc3cc(Cl)nn43)cc2)C(F)(F)F)CC1=O (relative stereo)	6.71
COC(=O)N(C)[C@@H](c1ccc(N2CCCc3c2cnc2cc(Cl)nn32)cc1)C(F)(F)F	6.39
CN(C(=O)[C@@H]1CCS(=O)(=O)C1)[C@@H](c1ccc(N2CCCc3c2cnc2cc(Cl)nn32)cc1)C(F)(F)F (relative stereo)	7.02
CN(C(=O)CN1CCNCC1)[C@@H](c1ccc(N2CCCc3c2cnc2cc(Cl)nn32)cc1)C(F)(F)F	6.13
CN(C(=O)[C@H]1CCS(=O)(=O)C1)[C@@H](c1ccc(N2CCCc3c2cnc2cc(Cl)nn32)cc1)C(F)(F)F (relative stereo)	6.76
CN(C(=O)N1CCOCC1)[C@@H](c1ccc(N2CCCc3c2cnc2cc(Cl)nn32)cc1)C(F)(F)F	6.59

a. COC[C@]1(C)CCN(c2ccc([C@H](N(C)C(=O)[C@H]3CC[S@@+]([O-])CC3)C(F)(F)F)cc2)c2cnc3cc(Cl)nn3c21 (relative stereo)
b. CN(C(=O)[C@@H]1CCN(C(=O)CC#N)C1)[C@@H](c1ccc(N2CCCc3c2cnc2cc(Cl)nn32)cc1)C(F)(F)F
Return label of the item with the larger pIC50. Candidates: a , b . I would appreciate it if you answered with the label of your choice.
a
(a: 6.89, b: 6.62)

1. CN(C(=O)C1CN(S(C)(=O)=O)C1)[C@@H](c1ccc(N2CCCc3c2cnc2cc(Cl)nn32)cc1)C(F)(F)F
2. CN1CCN(CC(=O)N(C)[C@@H](c2ccc(N3CCCc4c3cnc3cc(Cl)nn43)cc2)C(F)(F)F)CC1
Compare reported pIC50 values for 1 and 2 . Which is lower? I would appreciate it if you answered with the label of your choice.
2
(2: 6.33, 1: 6.76)
